A collection of variants and their measured protein stability index
B1: ANKRD40 (parent)
chain: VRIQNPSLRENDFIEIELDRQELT

# Variants of: B1
# EXPERIMENT: protein stability index of a GFP-peptide fusion (GPS, HEK-293T) (PSI 1-6); higher = more stable;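 note: lentivirally expressed fusions sorted by FACS into six bins by GFP to DsRed ratio, PSI derived from sequencing read proportions per bin multiplied by bin number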
# EXPERIMENTAL_SETUP: c terminus: a fixed tail appended
When you answer, write just the number.

Solved cases below.
>  <ITEM_SEQUENCE>
VRIQNPSLRENDFIETELDRQELT [I16T]

>  <protein stability index>
4.44

$$$$
>  <ITEM_SEQUENCE>
VRIQNPSLRKNDFIEIELDRQELT [E10K]

>  <protein stability index>
2.08

$$$$
>  <ITEM_SEQUENCE>
VRIQNPSLRENDFIEIELDRVELT [Q21V]

>  <protein stability index>
1.76

$$$$
>  <ITEM_SEQUENCE>
VWIQNPSLRENDFIEIELDRQELT [R2W]

>  <protein stability index>
1.74

$$$$
>  <ITEM_SEQUENCE>
VRIQNPSLRENDFAEIELDRQELT [I14A]

>  <protein stability index>
4

$$$$
>  <ITEM_SEQUENCE>
VRIQNPSLRENDFIEISLDRQELT [E17S]

>  <protein stability index>
2.15

$$$$

VRIQNPSLRENHFIEIELDRQELT [D12H] has a reported protein stability index of 2.11

VRIENPSLRENDFIEIELDRQELT [Q4E] has a reported protein stability index of 2.31

VRIQNPSLRENDFIEYELDRQELT [I16Y] has a reported protein stability index of 3.15

VRIQNPSLRENDFIEIEGDRQELT [L18G] has a reported protein stability index of 4.38

VRIQNPSLRENDFIEPELDRQELT [I16P] has a reported protein stability index of 4.67

VRIQNPSLRENDFIEIESDRQELT [L18S] has a reported protein stability index of 4.81

VRIQNPSLRENDFIEIELDRDELT [Q21D] has a reported protein stability index of 1.84

VRIQNPSLREKDFIEIELDRQELT [N11K] has a reported protein stability index of 2.94
